// protein stability index lookup, one value per entry
B1: GNB5 (parent)
chain: DINSVRYYPSGDAFASGSDDATCR

Variants of: B1
Assay: protein stability index of a GFP-peptide fusion (GPS, HEK-293T) (PSI 1-6); higher = more stable;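 further: lentivirally expressed fusions sorted by FACS into six bins by GFP to DsRed ratio, PSI derived from sequencing read proportions per bin multiplied by bin number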
Details: c terminus: a fixed tail appended
endpoint-label: protein stability index

input-sequence: DINSVRYYPSGDAFASGSDMATCR
measured-result: 3.13

input-sequence: DINSVRYYPSPDAFASGSDDATCR
measured-result: 3.93

input-sequence: DINSVRYYPSGDAFASGSDDGTCR
measured-result: 3.63

input-sequence: DINSVRYYPSGDAFASGTDDATCR
measured-result: 4.06

input-sequence: DINSVRYYPSVDAFASGSDDATCR
measured-result: 3.46

input-sequence: DIKSVRYYPSGDAFASGSDDATCR
measured-result: 4.04

input-sequence: DKNSVRYYPSGDAFASGSDDATCR
measured-result: 4.68

input-sequence: DINSVRYYPSGDAVASGSDDATCR
measured-result: 4.28

input-sequence: DINSVRYYPSGDAFASGSDDSTCR
measured-result: 3.91

input-sequence: DINSVRTYPSGDAFASGSDDATCR
measured-result: 4.64

input-sequence: DIQSVRYYPSGDAFASGSDDATCR
measured-result: 4.31

input-sequence: DINSVREYPSGDAFASGSDDATCR
measured-result: 5.19

input-sequence: DINSVRYYPSGDAFHSGSDDATCR
measured-result: 3.7

input-sequence: DINSVRYYPSGDAFASGSDDPTCR
measured-result: 4.16

input-sequence: PINSVRYYPSGDAFASGSDDATCR
measured-result: 3.33

input-sequence: DINSVRYYPSGDAFASGSDDATHR
measured-result: 4.3

input-sequence: DINSVRYYPSGDAFASGSKDATCR
measured-result: 3.7

input-sequence: DINSVRYYPSFDAFASGSDDATCR
measured-result: 3.61

input-sequence: DINSVRSYPSGDAFASGSDDATCR
measured-result: 4.69

input-sequence: DINSVRYYPSGDAFASGSDWATCR
measured-result: 2.16

input-sequence: DICSVRYYPSGDAFASGSDDATCR
measured-result: 3.87

input-sequence: DINSVRYYPSGDAFASGSDTATCR
measured-result: 3.58

input-sequence: DINSVRYYPSGDAFMSGSDDATCR
measured-result: 3.57

input-sequence: DINSVRYYPQGDAFASGSDDATCR
measured-result: 4.08

input-sequence: DINSVRYYPSGDAFAFGSDDATCR
measured-result: 3.46

input-sequence: DINSVRYYPSGDAFASGSDDATER
measured-result: 4.74

input-sequence: DINSVRYYPSGDAFASGSFDATCR
measured-result: 2.39

input-sequence: DINSVRYYPSGDAFASNSDDATCR
measured-result: 3.68

input-sequence: TINSVRYYPSGDAFASGSDDATCR
measured-result: 3.95

input-sequence: DINSVRYPPSGDAFASGSDDATCR
measured-result: 4.63

input-sequence: DINSVRYYPSGDASASGSDDATCR
measured-result: 4.64

input-sequence: DINSVRYYPSGDAFASGSDDATKR
measured-result: 4.41

input-sequence: DINSVRYYPYGDAFASGSDDATCR
measured-result: 3.1

input-sequence: DINSVRYYPSGVAFASGSDDATCR
measured-result: 2.94

input-sequence: DINSVRYYPSGDAFASGSVDATCR
measured-result: 2.69

input-sequence: DINSVRYYPEGDAFASGSDDATCR
measured-result: 4.63

input-sequence: DINSVRYYPSGDAFASGSTDATCR
measured-result: 3.25

input-sequence: DINSVRYYPSGDAFASGSDDANCR
measured-result: 4.01

input-sequence: DINSVRYYPSGTAFASGSDDATCR
measured-result: 3.31

input-sequence: DINSVRYYPSGDAFASGSDDATTR
measured-result: 4.55

input-sequence: DINSVRYYPSDDAFASGSDDATCR
measured-result: 4.4

input-sequence: DINSVRYYPSGDAFASGSWDATCR
measured-result: 3.03

input-sequence: DINSVRAYPSGDAFASGSDDATCR
measured-result: 4.5

input-sequence: DINSVRYYPSGDAFASGSDFATCR
measured-result: 2.5

input-sequence: DINSVRYQPSGDAFASGSDDATCR
measured-result: 4.77

input-sequence: DINSVRYYPMGDAFASGSDDATCR
measured-result: 3.43
